All values here come from patent US20190060428A1.

Assay: Short-term room temperature stability of Pool 3 mixed with Hiltonol (RP-HPLC)
Format: physicochemical
Conditions: T0 Pool 3 + Hiltonol, RP-HPLC
measurement-type: % Impurity (%)

1) H-AESAQRQGPNGGGEQSANEF-OH [CS7416] : 2.35

[P] H-VAGLAASGLHGSAWLVPGEQPVSGPHHGKQ-OH [CS6931]
[Q] H-SKRGVGAKTLLLPDPFLFWPCLEGTRRSL-OH [CS6934]
[R] H-AHRQGEKQHLLPVFSRLALRLPWRHSVQL-OH [CS6941]
Task: Let's sort these by % Impurity, smallest first. Go ahead? Write the labels, ordered according to the request.
Output: R, P, Q

====

Experiment: pH of peptide solutions in DMSO/D5W, with succinate, and with Hiltonol
Assay type: physicochemical
measurement-type: pH of peptides in DMSO/D5W

1. H-LLTDRNTSGTTFTLLGVSDYPELQVPIPQAGLG-OH [CS7408] : 3.89
2. H-KPKKVAGAATPKKSIKRTPKKVKKPATAAGTKK-OH [CS6717] : 4.65
3. H-KGASLDAGWGSPRWTTTRMTSASAGRSTRA-OH [CS7414] : 3.81

====

Assay: Short-term room temperature stability of Pool 3 mixed with Hiltonol (RP-HPLC)
Format: physicochemical
Settings: T0 Pool 3 + Hiltonol, RP-HPLC
Procedure: A peptide pool (Pool 3) consisting of the five peptides shown in Table 6 below was prepared by dissolution in DMSO and dilution with D5W/Succinate (2 mM) to 2 mg/ml and pooling to a final peptide concentration of 400 μg per ml and a final DMSO concentration of 4%. […] Three samples were prepared by mixing 0.75 ml of Pool3 with 0.25 ml Hiltonol® as planned for the dosage form preparation. The samples were then left at room temperature for 0, 4 and 6 hours and analyzed by RP-HPLC (Table 7). […]
measurement-type: Total Impurities

Solved cases below.
1) H-KLAWRGRISSSGCPSMTSPPSPMFGMTLHT-OH [CS6919] : 1256.72
2) H-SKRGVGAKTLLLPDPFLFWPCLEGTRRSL-OH [CS6934] : 244.49
3) H-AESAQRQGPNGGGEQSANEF-OH [CS7416] : 143.98

[1] H-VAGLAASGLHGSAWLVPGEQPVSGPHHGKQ-OH [CS6931]
[2] H-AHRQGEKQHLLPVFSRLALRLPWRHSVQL-OH [CS6941]
Task: Please indicate which entry, 1 or 2 , has the lower recorded Total Impurities value. In your reply, give the label of the chosen option.
Output: 2

====

Measured solubility values are reported for all entries that follow.
Assay: physchem
Settings: pH 6

Solved cases below.
1) H-ERLSIQNFSKLLNDNIFYMS-OH : < 2000 µg/mL
2) H-FAKGFRESDLNSWPVAPRPLLSV-OH : > 2000 µg/mL
3) H-DVTYDGHPVLGSPYTVEASL-OH : < 2000 µg/mL

Task: If you can, please state the reported solubility value of H-GSVLQFMPFTTVSELMKVSAMSSPKV-OH .
Output: > 2000 µg/mL

Task: If you can, please state the reported solubility value of H-WDGPPENDMLLKEICGSLIP-OH .
Output: > 2000 µg/mL

Task: If you can, please state the reported solubility value of H-ASATEPANDSLFSPGAANLFSTYLAR-OH .
Output: > 2000 µg/mL

Task: If you can, please state the reported solubility value of H-AAVDSVTIPPAQCYLSLLHLQQRRMQSA-OH .
Output: > 2000 µg/mL

Task: If you can, please state the reported solubility value of H-RYNSTAATNEVSEVTVFSKSPVT-OH .
Output: > 2000 µg/mL

Task: If you can, please state the reported solubility value of H-NNGPVTILQRIHHMAASHVNITS-OH .
Output: < 2000 µg/mL

Task: If you can, please state the reported solubility value of H-GPLQLPVTRKNMPLPGVVKLPPLPGS-OH .
Output: > 2000 µg/mL

Task: If you can, please state the reported solubility value of H-LLDILDTAGREEYSAMRDQYMRT-OH .
Output: > 2000 µg/mL

Task: If you can, please state the reported solubility value of H-TTSGDERLYPSPTFYIHENYLQLFE-OH .
Output: < 2000 µg/mL

Task: If you can, please state the reported solubility value of H-YRMYQKGQETSTNLIASIFA-OH .
Output: < 2000 µg/mL

Task: If you can, please state the reported solubility value of H-SPQSGGAATLAAQARLQPVHLDVWGEHERG-OH .
Output: > 2000 µg/mL

Task: If you can, please state the reported solubility value of H-LNYLRTAKFLEMYGVDLHPVYG-OH .
Output: < 2000 µg/mL

Task: If you can, please state the reported solubility value of H-DGGRQHSGPRRHSGAGPKPSSSEWAVCWAP-OH .
Output: > 2000 µg/mL

Task: If you can, please state the reported solubility value of H-SQSSTPAMLFPAPAAHRTLTYLSQ-OH .
Output: > 2000 µg/mL

Task: If you can, please state the reported solubility value of H-EAAFSVGATGIITDYPTALRHYLDNHG-OH .
Output: < 2000 µg/mL

Task: If you can, please state the reported solubility value of H-GDQYKATDFVADWAGTFKMVFTPKDGSG-OH .
Output: > 2000 µg/mL

Task: If you can, please state the reported solubility value of H-NNQTNSPTTPNFGSSGSFNLPNSGD-OH .
Output: > 2000 µg/mL

Task: If you can, please state the reported solubility value of H-LSVPFTCGVNFGDSIEDLEI-OH .
Output: > 2000 µg/mL

Task: If you can, please state the reported solubility value of H-SAVSAASIPAMHINQATNGGGS-OH .
Output: < 2000 µg/mL

Task: If you can, please state the reported solubility value of H-SRNTGHLHPTPRFPLLRWTQEPQPLE-OH .
Output: > 2000 µg/mL

Task: If you can, please state the reported solubility value of H-GHQKLPGKIHLFEAEFTQVAKKEPDG-OH .
Output: > 2000 µg/mL

Task: If you can, please state the reported solubility value of H-LHTHYDYVSALHPVSTPSKEYTSA-OH .
Output: > 2000 µg/mL

Task: If you can, please state the reported solubility value of H-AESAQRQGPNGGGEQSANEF-OH .
Output: > 2000 µg/mL

Task: If you can, please state the reported solubility value of H-TKLKSKAPHWTNCILHEYKNLSTS-OH .
Output: > 2000 µg/mL

Task: If you can, please state the reported solubility value of H-DPLMTCSEPERLTEILFQRAELE-OH .
Output: < 2000 µg/mL
